Give effect on crop, Corn (level) for every item shown.
System: corn
test: post-emergence stage experiment, crop (Table 1)
Format: in vivo
experimental-conditions: post-emergence spray at 4-5 leaf stage, 250 g/ha active ingredient with 450 kg/ha water, rated after 3 weeks in greenhouse

CCOc1c(C(=O)Oc2c(C(=O)c3ccc(C(F)(F)F)c(N4CCCCCC4=O)c3Cl)cnn2C)cnn1C [Compound 051]	2 (Level 2: 5%-20% growth control rate)

--- query ---
Q: Consider the molecule CCOc1c(C(=O)Oc2c(C(=O)c3ccc(C(F)(F)F)c(N4CCCCC4=O)c3Cl)c(C)nn2C)cnn1C [Compound 037] and give its measured effect on crop, Corn (level).
Ans: 0

* * *

Tested on: rice
test: post-emergence stage experiment, crop (Table 1)
Format: in vivo
experimental-conditions: post-emergence spray at 4-5 leaf stage, 250 g/ha active ingredient with 450 kg/ha water, rated after 3 weeks in greenhouse
parameter: effect on crop, Rice (level)

Cn1ncc(C(=O)c2ccc(C(F)(F)F)c(N3CCCCCC3=O)c2Cl)c1O [Compound 050]	0
CCOc1c(C(=O)Oc2c(C(=O)c3ccc(C(F)(F)F)c(N4CCCC4=O)c3Cl)cnn2C)cnn1C [Compound 015]	2 (Level 2: 5%-20% growth control rate)
CCc1nn(C)c(OC(=O)c2cn(C)nc2C)c1C(=O)c1ccc(C(F)(F)F)c(N2CCCCC2=O)c1Cl [Compound 111]	10

--- query ---
Q: Consider the compound Cc1cc(C)n(-c2c(C(F)(F)F)ccc(C(=O)c3c(C)nn(C)c3O)c2Cl)n1 [Compound 093] and give its measured effect on crop, Rice (level).
Ans: 0

* * *

Test system: wheat
test: wheat field test, crop selectivity, greenhouse spray at 4 leaf stage
Format: in vivo
experimental-conditions: 250 g/ha of the active substance; 4 weeks after treatment
parameter: Wheat (activity level, crop damage)

Q: Consider the compound CC(=O)N(CC(F)F)c1c(C(F)(F)F)ccc(C(=O)c2c(C)nn(C)c2O)c1Cl [Compound 005] and give its measured Wheat (activity level, crop damage).
Ans: 0

* * *

Give effect on crop, Wheat (level) for every item shown.
Tested on: wheat
test: post-emergence stage experiment, crop (Table 1)
Type: in vivo
experimental-conditions: post-emergence spray at 4-5 leaf stage, 250 g/ha active ingredient with 450 kg/ha water, rated after 3 weeks in greenhouse
Source text: The activity level standard of harmful plant destruction (i.e. growth control rate) is as follows: The above described growth control rate is fresh weight control rate. Monocotyledonous and dicotyledonous weed seeds and main crop seeds (i.e. wheat, corn, rice, soybean, cotton, oilseed, millet and sorghum.) were put into a plastic pot loaded with soil. Then covered with 0.5-2 cm soil, the seeds were allowed to grow in good greenhouse environment. […]

See these solved cases before continuing.
COC(=O)Oc1c(C(=O)c2ccc(C(F)(F)F)c(N3CCCC3=O)c2Cl)c(C)nn1C [Compound 020]	0
Cn1cc(C(=O)Oc2c(C(=O)c3ccc(C(F)(F)F)c(N4CCCCC4=O)c3Cl)cnn2C)cn1 [Compound 033]	2 (Level 2: 5%-20% growth control rate)

--- query ---
Q: Consider the compound Cc1cnn(-c2c(C(F)(F)F)ccc(C(=O)c3c(C)nn(C)c3O)c2Cl)c1 [Compound 084] and give its measured effect on crop, Wheat (level).
Ans: 0

* * *

Test system: corn
test: post-emergence stage experiment, crop (Table 1)
Assay type: in vivo
experimental-conditions: post-emergence spray at 4-5 leaf stage, 250 g/ha active ingredient with 450 kg/ha water, rated after 3 weeks in greenhouse
parameter: effect on crop, Corn (level)

Q: Could you share what effect on crop, Corn (level) was measured for CCOC(=O)Oc1c(C(=O)c2ccc(C(F)(F)F)c(N3CCCCCC3=O)c2Cl)c(C)nn1C [Compound 055] , tested on corn?
Ans: 0

Numbers sourced from patent US11076594B2.
